These data points were gathered from PubChem BioAssay (NCATS).

Test: NFAT Signaling Pathway (AID 444);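 further: carbachol stimulus at about its EC50 of 1 µM final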
Conditions: Jurkat NFAT-bla M1, carbachol, beta-lactamase ratio, 5 h; at 17.2 µM (top of the series) unless noted
Procedure: NCGC Assay Overview: The nuclear factor of activated T cells (NFAT) family of transcription factors has been found primarily in most immune system cells and some other non-immune cells. NFAT plays the immunomodulatory role, primarily in T-cell activation and differentiation. […] NCGC Assay Protocol Summary: The cells were prepared in RPMI 1640 medium containing 0.1% dialyzed FBS and 25 mM HEPES at 1.6 x 10^6cell/ml. […] The %Activity was determined from the ratio of 460nm/530nm. […]
Inconclusive results are not listed. Activity calls are given as the source filed them. The call rests on the fitted dose curve; in most records, active means well fitted curve in either direction with a large enough effect (not every such curve was filed as active); inconclusive means small, poorly fitted or top-dose-only effect, or another doubt; inactive means flat fitted curve, though single readings scatter.
Please state which outcome applies, choosing from active, inactive

I'd appreciate the recorded outcome for COC(=O)c1c(-n2cnnn2)sc(C)c1C from this test.
inactive

Give the logged outcome of this assay for the following compound: CCOC(=O)C1=C(C)N=C2SC(C)C(=O)N2C1c1ccc(C(=O)OC)cc1 (stereo not drawn)
inactive

Dear colleague, could you share the recorded outcome for CCCOc1ccc(N2C(=O)C3ON(c4ccccc4)C(c4ccc(O)c(OC)c4)C3C2=O)cc1 (stereo not drawn) when you have a moment?
inactive

Would you mind telling me which call this test gave CCOc1ccc2c(c1)n([O-])c1c([n+]2=O)CCCC1 ?
inactive

So what was the verdict on CCOC(=O)/C(C#N)=C1/SC(CCO)C(=O)N1c1ccccc1 (stereo not drawn) in this test?
inactive

I would be grateful if you could indicate the recorded call for COC(=O)COc1ccc(Oc2nc(SC)nc(N(C)C)n2)nn1 .
inactive

Check the results log: what was the call for N#Cc1c(N2CCCCC2)nc(N2CCCCC2)c2c1CCN(Cc1ccccc1)C2 ?
inactive

So what was the verdict on COCCOC(=O)c1c(C)nc(SCC(=O)Nc2ccc(OC)cc2)c(C#N)c1-c1ccco1 in this test?
inactive

State the result this test recorded for CC(=O)Nc1ccc(OC(=O)CC2SC(=O)NC2=O)cc1 (stereo not drawn) .
inactive

Returns: the outcome recorded for COc1ccccc1-n1c(N)c(C(=O)NCC2CCCO2)c2nc3ccccc3nc21 (stereo not drawn) in this assay.
inactive

What did this assay record as the result for Cc1ccc(NC(=O)Cn2nc(C)c3ccccc3c2=O)cc1 ?
inactive

Write down the call the test reported for this compound. Item: COc1ccccc1C(=O)NCC(=O)n1nc(C)cc1C
inactive

Any idea what this test logged for CC1CN(C2CCN(S(=O)(=O)c3ccc4ccccc4c3)CC2)CC(C)O1 (stereo not drawn) ?
inactive

What classification did C=CCN(C(=O)CCC(=O)O)C1CC(=O)N(c2ccc(OCCC)cc2)C1=O (stereo not drawn) end up with in this test?
inactive

// return assay outcome for CC1(C)CC(=O)C2=C(C1)N(Cc1ccco1)C(=O)C2(O)C(F)(F)F (stereo not drawn)
inactive

Give the logged outcome of this assay for the following compound: COc1ccc(C=NCCC2(O)CC(C)N(C)CC2C)cc1 (stereo not drawn)
inactive

Just curious, what result did COc1ccc2c(C)nc(Nc3nc(C)cc(C)n3)nc2c1 get here?
inactive

Just curious, what result did O=C(Cc1cscn1)c1ccc(O)cc1O get here?
inactive

Status in this test for CC(=O)N[C@H](Cc1c[nH]c2ccccc12)C(=O)O ?
inactive

What classification did C=CCOc1ccc(/C(O)=C2/C(=O)C(=O)N(CCCN3CCOCC3)C2c2ccc(OC)cc2)cc1 (stereo not drawn) end up with in this test?
inactive

Per the records of this test, what outcome belongs to COc1nnnc2c1sc1nc(N3CCOCC3)c3c(c12)CC(C)(C)OC3 ?
inactive

For CCNC(=O)COn1c(SCC(=O)NCC)nc2ccccc2c1=O , what call appears in the results of this test?
inactive

Dear colleague, could you share the recorded outcome for CCO/C(C)=N/n1c2nc3ccccc3nc2c2c(=O)n(CC(C)C)c(C)nc21 when you have a moment?
inactive

Please state the recorded outcome for this compound: COCc1[nH]nc2c1C(c1ccccc1OC)C(C#N)=C(N)O2 (stereo not drawn)
inactive

Tell me the recorded outcome of this test for O=C(O)CC(C(=O)N(c1ccccc1)c1ccccc1)N1CCOCC1 (stereo not drawn) .
inactive

Given Nc1c(Br)cc2oc(-c3ccccc3)nc2c1Br , state the outcome it received in this test.
inactive

State the result this test recorded for CCN(CC)CCN1C(=O)C(O)=C(C(C)=O)C1c1ccc(OC)c(OC)c1 (stereo not drawn) .
inactive

I would be grateful if you could indicate the recorded call for Cc1ccc(-n2ncc3c(NCCCOC(C)C)ncnc32)c(C)c1 .
inactive

Tell me the recorded outcome of this test for Cc1ccc(-n2ncc3c(NCCCN4CCCC4=O)ncnc32)c(C)c1 .
inactive

Can you look up the reported call for N#C/C(C(=O)NCc1ccco1)=C1/SC(Cc2ccc(F)cc2)C(=O)N1c1ccccc1 (stereo not drawn) for me?
inactive

Please state the recorded outcome for this compound: CCOc1cc2nc(-c3ccc(OC)c(OC)c3)nc(N3CCOCC3)c2cc1OC
inactive

Outcome? O=C1CCC(=O)N1CN(Cc1ccco1)CN1C(=O)CCC1=O
inactive

Call for entry Cc1c(NC(=O)c2coc(=O)c(Br)c2)c(=O)n(-c2ccccc2)n1C :
active

For this compound, state the assay outcome: Cc1ccc(C(=O)C2=C(O)C(=O)N(c3ncccn3)C2c2ccc(Cl)cc2)o1 (stereo not drawn)
inactive

Record request — test call for Nc1nonc1-c1noc(N2CCOCC2)n1
inactive

Kindly provide the recorded test outcome for the following compound: COC(=O)c1n[nH]c2ccccc12
inactive

Recorded call for O=S(=O)(c1ccccc1)N1CCC(N2CCN(c3ccccc3)CC2)CC1 ?
inactive

Per the records of this test, what outcome belongs to CCCCC[C@H](O)CCCC(=O)O ?
inactive

What outcome does the record of this test show for CCCOc1cccc(C2/C(=C(/O)c3ccc(F)cc3)C(=O)C(=O)N2CCN(C)C)c1 (stereo not drawn) ?
inactive

// outcome(item) with item = Cc1nc(NCCO)c(C#N)c2c1COC(C)(C)C2
inactive

Recorded test call requested for COc1nc(NS(=O)(=O)c2ccc(C)cc2)nc(C)c1Cl
inactive

Field: outcome | Entry: Nc1ccc(Cl)cc1/C(=N/O)c1ccccc1
inactive

For this compound, state the assay outcome: Nc1nnnn1CC(=O)OCc1cccc(Br)c1
inactive
